tested on: HCI-016 (organoid from a triple-negative breast cancer xenograft); experiment: CTG-3D luminescence at 96 h relative to day-0 seeding control (ratio to day 0); higher = more growth / less cytotoxicity; PDxO 3D drug screen, 96 h, CTG-3D normalised to day-0 seeding control.; settings: 10 µM; days in culture: 199
Quick rule for you: CTG-3D luminescence at 96 h at 0.1 or higher means Fulfilled, lower means Not fulfilled.

1) C=CC(=O)N1CCC[C@@H](n2nc(-c3ccc(Oc4ccccc4)cc3)c3c(N)ncnc32)C1 ... Fulfilled
2) C=CCn1c(=O)c2cnc(Nc3ccc(N4CCN(C)CC4)cc3)nc2n1-c1cccc(C(C)(C)O)n1 ... Not fulfilled
3) CCc1c2c(nc3ccc(O)cc13)-c1cc3c(c(=O)n1C2)COC(=O)[C@]3(O)CC ... Not fulfilled
4) COc1cccc2c1C(=O)c1c(O)c3c(c(O)c1C2=O)C[C@@](O)(C(=O)CO)C[C@@H]3O[C@H]1C[C@H](N)[C@H](O)[C@H](C)O1 ... Fulfilled
5) CC(C)(C(=O)NCC(F)(F)C(F)(F)F)C(=O)N[C@@H]1C(=O)Nc2ccccc2-c2ccccc21 ... Fulfilled
6) Nc1ccn([C@@H]2O[C@H](CO)[C@@H](O)C2(F)F)c(=O)n1 ... Fulfilled

Turning now to a further record.
[ask] In plain terms: is recorded CTG-3D luminescence at 96 h at least 0.1 for "C[C@@H]1COCCN1c1cc(C2([S@](C)(=N)=O)CC2)nc(-c2cc[nH]c3nccc2-3)n1" ?
[reply] Not fulfilled
